Listing: % cells E7 tet+/CD8- quadrant of selected binders
# TARGET_UNDER_TEST: T1, HLA-A2/E7(11-19) tetramer (human; HPV 16)
# T1 construct: also called E7(11-19) peptide-MHC tetramer; E7 tet
# PROTOCOL_SUMMARY: flow cytometry, tetramer + anti-CD8; transfected mix of CD8- and CD8+ Jurkat-derived cells;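 further: cells transiently transfected with TCR-encoding plasmids, analysed 48 h afterwards by co-staining with HLA-A*02:01 peptide tetramer and anti-CD8 antibody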
Report as a plain number; the unit % is understood.

BINDER | UNIT_OF_MEASURE | % cells E7 tet+/CD8- quadrant
TCR 40 (codon-optimized, cysteine-modified) (TCR, V domains shown) V domain 1: GQQVMQIPQYQHVQEGEDFTTYCNSSTTLSNIQWYKQRPGGHPVFLIQLVKSGEVKKQKRLTFQFGEAKKNSSLHITATQTTDVGTYFCAGRNNFNKFYFGSGTKLNVKP V domain 2: EPEVTQTPSHQVTQMGQEVILRCVPISNHLYFYWYRQILGQKVEFLVSFYNNEISEKSEIFDDQFSVERPDGSNFTLKIRSTKLEDSAMYFCAITARSSYEQYFGPGTRLTVTE | % | 1.37
TCR 44 (codon-optimized, cysteine-modified) (TCR, V domains shown) V domain 1: GQNIDQPTEMTATEGAIVQINCTYQTSGFNGLFWYQQHAGEAPTFLSYNVLDGLEEKGRFSSFLSRSKGYSYLLLKELQMKDSASYLCAQYSGGYQKVTFGTGTKLQVIP V domain 2: DSGVTQTPKHLITATGQRVTLRCSPRSGDLSVYWYQQSLDQGLQFLIQYYNGEERAKGNILERFSAQQFPDLHSELNLSSLELGDSALYFCASSGTPDTQYFGPGTRLTVLE | % | 1.43
TCR 46 (codon-optimized, cysteine-modified) (TCR, V domains shown) V domain 1: AQSVTQLDSQVPVFEEAPVELRCNYSSSVSVYLFWYVQYPNQGLQLLLKYLSGSTLVKGINGFEAEFNKSQTSFHLRKPSVHISDTAEYFCAVSPSSGTYKYIFGTGTRLKVLA V domain 2: GAGVSQTPSNKVTEKGKYVELRCDPISGHTALYWYRQSLGQGPEFLIYFQGTGAADDSGLPNDRFFAVRPEGSVSTLKIQRTERGDSAVYLCASSLYLGGSETQYFGPGTRLLVLE | % | 1.21
TCR 37 (codon-optimized, cysteine-modified) (TCR, V domains shown) V domain 1: ELKVEQNPLFLSMQEGKNYTIYCNYSTTSDRLYWYRQDPGKSLESLFVLLSNGAVKQEGRLMASLDTKARLSTLHITAAVHDLSATYFCAGYSGAGSYQLTFGKGTKLSVIP V domain 2: GAGVSQSPRYKVAKRGQDVALRCDPISGHVSLFWYQQALGQGPEFLTYFQNEAQLDKSGLPSDRFFAERPEGSVSTLKIQRTQQEDSAVYLCASSLLLGAYGYTFGSGTRLTVVE | % | 19.5

Switching to the query record.
Need % cells E7 tet+/CD8- quadrant of TCR 33 (codon-optimized, cysteine-modified) (TCR, V domains shown) V domain 1: QKEVEQNSGPLSVPEGAIASLNCTYSDRGSQSFFWYRQYSGKSPELIMFIYSNGDKEDGRFTAQLNKASQYVSLLIRDSQPSDSATYLCAVNAHHTGGFKTIFGAGTRLFVKA V domain 2: EPEVTQTPSHQVTQMGQEVILRCVPISNHLYFYWYRQILGQKVEFLVSFYNNEISEKSEIFDDQFSVERPDGSNFTLKIRSTKLEDSAMYFCASTPRDTYEQYFGPGTRLTVTE , thanks.
14

Source listed as patent US20210284709A1.
